Please go through the items and note down their SPOT intensity.
# STUDY SYSTEM: T1, Cyk3, Q07533
# T1 sequence (Q07533 1-83, looked up): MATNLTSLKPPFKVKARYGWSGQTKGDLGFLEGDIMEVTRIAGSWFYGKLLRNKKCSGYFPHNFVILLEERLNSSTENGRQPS
# TEST SUMMARY: SPOT array
# TEST SETTINGS: median of control spots 1451

Some binders with known SPOT intensity results, for comparison:
> print(dat)
             binder       parameter  result
 1  QNTPPLPPKPKSPHL  SPOT intensity       0
 2  DFTLPPPPPPPGLDE  SPOT intensity       0
 3  DRIRMFIRFPKFLLE  SPOT intensity       2
 4  SRSKPLPLTPNSKYN  SPOT intensity       1
 5  KRRTSLFPWLHKPGI  SPOT intensity       0
 6  RRSKSLPITPKSIFN  SPOT intensity       0
 7  WRPRIVPILPYITRL  SPOT intensity       0
 8  DHPKGPPPPPPPDEK  SPOT intensity       0
 9  RPPRPPPKPLHLRTE  SPOT intensity       0
10  ISNFVPPNLPMRRFK  SPOT intensity       0

Provide each entry's SPOT intensity from the list below.
1. APPLPPTAPPPPSLP
2. PLQSKIPMLPSRRTM
3. GQYRRTIVIPRRFFT
4. EEEEEHPPLPARRKS
5. PPLPRAPPVPPATFE

1: 0; 2: 2; 3: 4; 4: 0; 5: 0

Data provenance is paper PMC2756588.
